Listing: pIC50 of selected compounds
# Tested on: Caco-2
# test_summary: Cytotoxicity secondary screen (IC50)
# Assay type: cell-based
# assay_context: Homo sapiens, 48 h exposure, mean of triplicates, NE: no effect
pIC50: −log10 of the molar value.

Recorded results for 2 compounds are shown here.
                                   compound  measured_metric  result
0  Cc1ccccc1Nc1ncc2ccc3ccccc3c2n1 [Compound 4b, N-(o-tolyl)benzo[h]quinazolin-2-amine]            pIC50  < 4.60
1           Clc1ccccc1Nc1ncc2ccc3ccccc3c2n1            pIC50  < 4.60

Turning now to a further record.
Provide one value: measured pIC50 of Cc1ccc(Nc2ncc3ccc4ccccc4c3n2)cc1 [Compound 4d, N-(p-tolyl)benzo[h]quinazolin-2-amine] < 4.60

These data points were gathered from paper PMC11496704.
